Provide the recorded clearance for the entries that follow.
# experimentSummary: Apparent clearance in Sprague-Dawley rat at 10 mg/kg, iv after 15 mins to 24 hrs by LC-MS/MS method
# Type: ADME, organism-based
# assayContext: in vivo, read-out: CL(app) (converted)

IN: Sample CNC(=O)[C@H](Cc1c[nH]c2ccccc12)NC(=O)[C@@H](CC(=O)NO)CC(C)C [ILOMASTAT] — what was its clearance?
OUT: 66.5 mL/min/kg

IN: // returns reported clearance for input CNC(=O)[C@H](Cc1c[nH]c2ccccc12)NC(=O)[C@@H](CC(=O)Nc1ccccc1N)CC(C)C
OUT: 52.2 mL/min/kg

These measurements were taken from ChEMBL document CHEMBL3792275.
